System: BaF3
Protocol text: Antiproliferative activity against mouse BAF3 cells expressing EML4-fused ALK variant 1 assessed as reduction in cell viability measured after 2 days by alamar blue assay
Format: functional, cell-based
Settings: BaF3, 48 h
Measured property: IC50 (nM)

Look over these answered cases.
CCc1nc(C(N)=O)c(Nc2cccc(S(C)(=O)=O)c2)nc1N[C@H]1CC[C@H](O)CC1 : 68
CCc1nc(C(N)=O)c(Nc2ccc(N3CCC(N4CCN(C)CC4)CC3)c(OC)c2)nc1NC(C)C : 12
CCc1nc(C(N)=O)c(Nc2ccc(N3CCC(N4CCN(C)CC4)CC3)c(OC)c2)nc1N(C)CC : 31

A. CCc1nc(C(N)=O)c(Nc2ccc(N3CCC(N4CCN(C)CC4)CC3)c(OC)c2)nc1N[C@@H]1CCCC[C@H]1O (racemic)
B. CCc1nc(C(N)=O)c(Nc2ccc(N3CCC(N4CCN(C)CC4)CC3)c(OC)c2)nc1N[C@H]1CC[C@H](OC)CC1
Between A and B , whose measured IC50 reads higher? Respond with the label that goes with your answer.
A
(A: 48 nM, B: 9.7 nM)

1. CCc1nc(C(N)=O)c(Nc2ccc(N3CCC(N4CCN(C)CC4)CC3)cc2OC)nc1N[C@H]1CC[C@H](O)CC1
2. CCc1nc(C(N)=O)c(Nc2ccc(N3CCC(N4CCN(C)CC4)CC3)c(OC)c2)nc1N[C@H]1CC[C@H](O)CC1
Between 1 and 2 , whose measured IC50 reads higher? Respond with the label that goes with your answer.
1

====

Protocol text: Aqueous solubility of the compound in pH 6.8 JP2 fluid measured after 20 hrs by HPLC analysis
Format: physicochemical
Measured property: solubility at 20 h

Look over these answered cases.
CCc1nc(C(N)=O)c(Nc2cccc(S(C)(=O)=O)c2)nc1N[C@H]1CC[C@H](O)CC1 : 1.1 µM
CCc1nc(C(N)=O)c(Nc2ccc(N3CCC(N4CCN(C)CC4)CC3)c(OC)c2)nc1N[C@H]1CC[C@H](O)CC1 : ≥ 100 µM

# evaluate next
So what's the measured solubility at 20 h for this one? "CCc1nc(C(N)=O)c(Nc2ccc(N3CCC(N4CCN(C)CC4)CC3)cc2OC)nc1N[C@H]1CC[C@H](O)CC1"
≥ 100 µM
